System: Caco-2 cells
Assay: Cytotoxicity assay (CellTiter Glo) on colon epithelial carcinoma cells
Details: triazines 1-9; ratio CC50 FB789 / CC50 Caco-2
ASSAY_ENDPOINT: TSI Caco-2

Sample answers from the record:
{"CHEMICAL_STRUCTURE": "CC(=O)Nc1ccc(/C=N/Nc2nc(Nc3ccc(F)cc3)nc(Nc3ccc(F)cc3)n2)cc1", "ASSAY_ENDPOINT": "TSI Caco-2", "VAL": "<0.3"}
{"CHEMICAL_STRUCTURE": "CC(=O)Nc1ccc(/C=N/Nc2nc(N3CCOCC3)nc(N3CCOCC3)n2)cc1", "ASSAY_ENDPOINT": "TSI Caco-2", "VAL": "<0.7"}

Alright, here's another molecule for you.
## Task Could you share which TSI Caco-2 value was measured for Oc1ccccc1/C=N/Nc1nc(N2CCOCC2)nc(N2CCOCC2)n1 ?
## Result <0.1

---

Field: CC50 at 48 h. Provide a value for each of the compounds that follow.
Assay: Cytotoxicity assay (CellTiter Glo) on hepatocarcinoma cells
Format: cell-based
Details: human, Huh7 hepatocarcinoma cells; triazines 1-9; Huh7 hepatocarcinoma; read-out 48 h
Protocol: […] The cytotoxicity of all investigated compounds was assayed in all cells lines as previously described. […] Cell viability was calculated using the CellTiter Glo 2.0 kit (Promega, Madison, WI, USA) and luminescence values signal obtained from cells treated with serial dilution of the compounds were measured through the GloMax® Discover Multi mode Microplate Reader (Promega) and elaborated with GraphPad PRISM software version 9.0 (La Jolla, San Diego, CA, USA). […]

Sample answers from the record:
{"COMPOUND": "CC(=O)Nc1ccc(/C=N/Nc2nc(N3CCOCC3)nc(N3CCOCC3)n2)cc1 [Compound 2]", "CC50 at 48 h": "> 200 µM"}
{"COMPOUND": "Cc1cccc(/C=N/Nc2nc(Nc3ccc(F)cc3)nc(Nc3ccc(F)cc3)n2)c1 [Compound 9]", "CC50 at 48 h": "> 200 µM"}
{"COMPOUND": "Oc1ccccc1/C=N/Nc1nc(N2CCOCC2)nc(N2CCOCC2)n1 [Compound 1]", "CC50 at 48 h": "> 100 µM"}

## Task Could you share which CC50 at 48 h value was measured for CC(=O)Nc1ccc(/C=N/Nc2nc(Nc3ccc(F)cc3)nc(Nc3ccc(F)cc3)n2)cc1 [Compound 8] ?
## Result > 200 µM

---

Field: CC50 at 48 h. Provide a value for each of the molecules that follow.
Assay: Cytotoxicity assay (CellTiter Glo) on colon epithelial carcinoma cells
Settings: human, Caco-2

Sample answers from the record:
{"CHEMICAL_STRUCTURE": "CC(=O)Nc1ccc(/C=N/Nc2nc(N3CCOCC3)nc(N3CCOCC3)n2)cc1", "CC50 at 48 h": "> 200 µM"}
{"CHEMICAL_STRUCTURE": "CC(=O)Nc1ccc(/C=N/Nc2nc(Nc3ccc(F)cc3)nc(Nc3ccc(F)cc3)n2)cc1", "CC50 at 48 h": "> 200 µM"}

## Task Could you share which CC50 at 48 h value was measured for Oc1ccccc1/C=N/Nc1nc(N2CCOCC2)nc(N2CCOCC2)n1 ?
## Result > 400 µM
